# Target Entity: preQ1 riboswitch
# Test Name: Binding affinity to Bacillus subtilis 5-Cy5-PreQ1-RS RNA assessed as dissociation constant
# Assay type: nucleic-acid assay
Assay Endpoint: Kd (nM)

NCCOc1ccc2oc3ccccc3c2c1 ... 534

---

# Target Entity: Quadruplex DNA
# Test Name: Binding affinity to TERRA G-Quadruplex (unknown origin) assessed as dissociation constant
Assay Endpoint: Kd (µM)

O=c1c2c(-c3ccco3)csc2nc2n1Cc1nc3scc(-c4ccco4)c3c(=O)n1C2 ... 8.8

Source listed as ChEMBL document CHEMBL5528087.
